Tested on: biotinyl-Met-oxazolone
Experimental protocol: self-aminoacylation, catalytic enhancement (BMO) (fold over background); higher = more active; k-Seq, kA / k0A0; sequences stand for … in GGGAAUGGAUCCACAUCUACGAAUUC…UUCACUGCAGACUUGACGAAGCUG
This sample holds only a part of the variants without activity.
Parameter measured: self-aminoacylation
// no unit, no text: just the number

>  <Macromolecule sequence>
UCACACUUCAAUCAAUCGGUC [Fam1B.1 aminoacylation ribozyme variant]

>  <Study system>
biotinyl-Met-oxazolone

>  <Parameter measured>
self-aminoacylation

>  <Endpoint result>
1.12

$$$$
>  <Macromolecule sequence>
AUGCACCGAGGUCAUCGGGUG [Fam2.2 aminoacylation ribozyme variant]

>  <Study system>
biotinyl-Met-oxazolone

>  <Parameter measured>
self-aminoacylation

>  <Endpoint result>
5.79

$$$$
>  <Macromolecule sequence>
AUUACCCUCGUCAUCGUGUGA [Fam2.1 aminoacylation ribozyme variant]

>  <Study system>
biotinyl-Met-oxazolone

>  <Parameter measured>
self-aminoacylation

>  <Endpoint result>
1.47

$$$$
>  <Macromolecule sequence>
CGACACUUCAAGCAAUCGGAC [Fam1B.1 aminoacylation ribozyme variant]

>  <Study system>
biotinyl-Met-oxazolone

>  <Parameter measured>
self-aminoacylation

>  <Endpoint result>
1.74

$$$$
>  <Macromolecule sequence>
CGACACCUCAAGCAAUCGGUC [Fam1B.1 aminoacylation ribozyme variant]

>  <Study system>
biotinyl-Met-oxazolone

>  <Parameter measured>
self-aminoacylation

>  <Endpoint result>
1.03

$$$$

Requested read-out self-aminoacylation, target or system biotinyl-Met-oxazolone, entry CAGUUUGCUAAUAGUCACAAG [Fam3.1 aminoacylation ribozyme variant]
1.04

Give self-aminoacylation (biotinyl-Met-oxazolone) of the following sequence: CCAUACUUCAAGCAAUCGGGC [Fam1B.1 aminoacylation ribozyme variant]
1.53

Report self-aminoacylation for CCACACUGCAAGCACUCGGUC [Fam1B.1 aminoacylation ribozyme variant] tested on biotinyl-Met-oxazolone.
1.54

Item: UUACUUCACACAAUCGGUCUG [Fam1A.1 aminoacylation ribozyme variant] Test system: biotinyl-Met-oxazolone Read-out: self-aminoacylation Value: ?
1.06

Under biotinyl-Met-oxazolone: self-aminoacylation value of AAGUUUGUUAAUCGUCGCAAG [Fam3.1 aminoacylation ribozyme variant] ?
1.35

====

Tested on: biotinyl-Ile-oxazolone
Experimental protocol: self-aminoacylation, catalytic enhancement (BIO) (fold over background); higher = more active; k-Seq, kA / k0A0; sequences stand for … in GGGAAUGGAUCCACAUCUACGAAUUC…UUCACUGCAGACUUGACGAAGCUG
Variants at the floor of the assay were thinned out.
Threshold rule: self-aminoacylation greater than or equal to 3 is satisfied; below that, not satisfied.

>  <Macromolecule sequence>
CUACUUCACACAAUCGAUCUG [Fam1A.1 aminoacylation ribozyme variant]

>  <Group label>
not satisfied

$$$$
>  <Macromolecule sequence>
AUUACGCUGGUCAUAGAGUGA [Fam2.1 aminoacylation ribozyme variant]

>  <Group label>
not satisfied

$$$$
>  <Macromolecule sequence>
AUUCACCUAGGACAUCGCGUG [Fam2.2 aminoacylation ribozyme variant]

>  <Group label>
not satisfied

$$$$
>  <Macromolecule sequence>
AUUGACCUAGUUCAUCGGGUG [Fam2.2 aminoacylation ribozyme variant]

>  <Group label>
not satisfied

$$$$

Please find the next sequence below.
Decide: self-aminoacylation of AUUGACCUGGGUCAUCGGGUG [Fam2.2 aminoacylation ribozyme variant] >= 3?
satisfied
